Kindly supply the reported z-score values for the records listed here.
# Protocol Description: survival rescue of mitochondrial mutant cells in low glucose, primary screen, MELAS cybrids, Rieske KO mouse fibroblasts, CellTiter-Glo (AID 1508586);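 note: z relative to plate mean and SD of compound and empty wells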
# Condition Info: Rieske KO mouse fibroblast survival, CellTiter-Glo 72 h

Looking for the measured z-score of CC1(C)S[C@@H]2[C@H](NC(=O)Cc3ccccc3)C(=O)N2[C@H]1C(=O)O , can you help?
-0.0384

Same thing, different compound: CN(c1nccc(=O)[nH]1)C1CCN(c2nc3ccccc3n2Cc2ccc(F)cc2)CC1
0.258

Same thing, different compound: C[C@@H]1C(=O)O[C@H]2C[C@@]34[C@H]5C[C@@H](C(C)(C)C)[C@]36[C@@H](OC(=O)[C@@H]6O)O[C@@]4(C(=O)O5)[C@]21O
-1.08

Same thing, different compound: Cc1cc(O)c2c(c1)C(=O)c1cc(O)cc(O)c1C2=O
0.119

Same thing, different compound: NS(=O)(=O)c1cc2c(cc1Cl)NC(CC1CCCC1)NS2(=O)=O (stereo unspecified)
-0.891

Same thing, different compound: Nc1ccc2cc3ccc(N)cc3nc2c1
-2.97

Same thing, different compound: CCCCN1C[C@H](O)[C@@H](O)[C@H](O)[C@H]1CO
-0.247

Same thing, different compound: CN(C(=O)C(Cl)Cl)c1ccc(OC(=O)c2ccco2)cc1
-0.472

Same thing, different compound: C[C@H]1COc2c(N3CCN(C)CC3)c(F)cc3c(=O)c(C(=O)O)cn1c23
-0.528

Same thing, different compound: CN1CCc2c(c3ccccc3n2Cc2ccccc2)C1
0.0579

Same thing, different compound: COc1cc(C=O)ccc1O
-0.136

Same thing, different compound: CCN(CC)C(=O)Nc1ccc(OCC(O)CNC(C)(C)C)c(C(C)=O)c1 (stereo unspecified)
0.098

Same thing, different compound: Cc1cccn2c(=O)c(-c3nnn[nH]3)cnc12
-0.0743

Same thing, different compound: Oc1cc2c(cc1O)[C@@H]1c3ccc(O)c(O)c3OC[C@]1(O)C2
0.131

Same thing, different compound: Cc1c(N)c(=O)n(-c2ccccc2)n1C
-0.119

Same thing, different compound: C=CCN1C[C@H](C(=O)N(CCCN(C)C)C(=O)NCC)C[C@@H]2c3cccc4[nH]cc(c34)C[C@H]21
-1.44

---

Kindly supply the reported glutamate uptake change values for the records listed here.
# Protocol Description: enhancers of glutamate uptake in motor neurons, MN-1 cell line (AID 1612);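 note: tested at 1 µM final; 0% = mean of DMSO vehicle wells on each plate; positive means more glutamate uptake than control and negative means less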
# Condition Info: MN-1 motor neuron cells, stronger effect = higher value
Only the number, expressed in %, is required.

Looking for the measured glutamate uptake change of COC(=O)[C@H]1[C@H]2C[C@H]3c4[nH]c5cc(OC)ccc5c4CCN3C[C@H]2C[C@@H](OC(=O)c2cc(OC)c(OC)c(OC)c2)[C@@H]1OC , can you help?
8.81

Same thing, different molecule: COc1cc(OC)c2ccc(=O)oc2c1
-7.62

Same thing, different molecule: CNCCc1ccccn1
-5.29

Same thing, different molecule: Nc1ccc(S(=O)(=O)Nc2ncccn2)cc1
-2.67

Same thing, different molecule: COc1cc2ccc(=O)oc2cc1O
13.8

Same thing, different molecule: CCn1nc(C(=O)O)c(=O)c2cc3c(cc21)OCO3
-5.25

Same thing, different molecule: N[C@H](Cc1ccccc1)C(=O)O
4.25

Same thing, different molecule: CN(C)CC/C=C1\c2ccccc2Sc2ccc(Cl)cc21
14.9

Same thing, different molecule: CN1CCc2c(c3ccccc3n2Cc2ccccc2)C1
-0.3

Same thing, different molecule: O=C1c2ccc(O)c(O)c2C(=O)c2c(O)ccc(O)c21
32

Same thing, different molecule: Cc1cc(NS(=O)(=O)c2ccc(N)cc2)no1
12.1

Same thing, different molecule: C[n+]1c2cc(N)ccc2cc2ccc(N)cc21
14.1

Same thing, different molecule: C=C[C@H]1CN2CC[C@H]1C[C@@H]2[C@@H](O)c1ccnc2ccc(OC)cc12
12.1

---

# Protocol Description: UWB1.289_BRCA1 ovarian cancer growth, cell-based, BGB or cisplatin combinations (AID 1671459)
# Condition Info: UWB1.289 BRCA1 ovarian carcinoma, drug combinations, cisplatin combination, concentration series, at 5 µM, stronger effect = higher value
Label Not satisfied if inhibition falls below 20%; label Satisfied in every other case.

Is inhibition at least 20%? Consider N=C(N=C(N)N)N1CCOCC1
Not satisfied

Same thing, different compound: Nc1ccc2cc3ccc(N)cc3nc2c1
Satisfied

Same thing, different compound: CC1(C(=O)O)CCC2(C)CCC3(C)C(=CC(=O)C4C5(C)CCC(OC(=O)CCC(=O)O)C(C)(C)C5CCC43C)C2C1 (stereo unspecified)
Not satisfied

Same thing, different compound: N=c1ccn2c(n1)O[C@H]1[C@H](O)[C@@H](CO)O[C@H]12
Satisfied

Same thing, different compound: CCn1nc(C(=O)O)c(=O)c2cc3c(cc21)OCO3
Not satisfied

Same thing, different compound: CN1CCN(c2c(F)cc3c(=O)c(C(=O)O)cn(CCF)c3c2F)CC1
Not satisfied

Same thing, different compound: O=c1cc[nH]c(=O)[nH]1
Not satisfied

Same thing, different compound: COc1c2ccoc2cc2oc(=O)ccc12
Not satisfied

Same thing, different compound: C[C@@H](CN1CC(=O)NC(=O)C1)N1CC(=O)NC(=O)C1
Not satisfied

Same thing, different compound: O=C(CCCCCCC(=O)Nc1ccccc1)NO
Satisfied

---

# Assayed System: Mitogen-activated protein kinase 7 (Homo sapiens) (UniProt Q13164)
# Sequence (Q13164 whole entry, looked up, the tested form may be a part): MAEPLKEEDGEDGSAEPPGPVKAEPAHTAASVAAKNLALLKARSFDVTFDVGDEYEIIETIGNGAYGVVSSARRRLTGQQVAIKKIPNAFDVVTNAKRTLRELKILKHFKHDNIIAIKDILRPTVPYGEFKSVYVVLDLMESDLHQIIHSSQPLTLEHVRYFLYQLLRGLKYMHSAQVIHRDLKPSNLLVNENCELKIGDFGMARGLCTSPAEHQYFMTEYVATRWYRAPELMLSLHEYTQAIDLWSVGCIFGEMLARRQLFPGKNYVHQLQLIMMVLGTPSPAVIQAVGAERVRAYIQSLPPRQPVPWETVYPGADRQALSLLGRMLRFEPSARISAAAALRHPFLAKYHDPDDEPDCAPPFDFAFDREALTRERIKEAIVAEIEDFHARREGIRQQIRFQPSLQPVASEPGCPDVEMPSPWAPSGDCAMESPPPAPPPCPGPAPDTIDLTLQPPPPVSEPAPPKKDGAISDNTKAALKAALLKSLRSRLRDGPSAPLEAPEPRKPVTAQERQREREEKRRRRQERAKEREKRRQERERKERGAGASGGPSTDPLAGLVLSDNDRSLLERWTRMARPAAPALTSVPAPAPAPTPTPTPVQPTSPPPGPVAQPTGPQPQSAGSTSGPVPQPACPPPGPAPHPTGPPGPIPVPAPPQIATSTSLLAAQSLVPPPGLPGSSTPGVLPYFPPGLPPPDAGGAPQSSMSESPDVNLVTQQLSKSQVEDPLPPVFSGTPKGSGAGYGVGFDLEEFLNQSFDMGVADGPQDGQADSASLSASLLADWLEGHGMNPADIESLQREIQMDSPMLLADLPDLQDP
# Protocol Description: ERK5 transactivation activators in reporter cells, primary screen, cell-based, HTS (AID 1508626);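 note: luciferase driven by Gal4-ERK5 fusion binding five Gal4 sites before minimal TATA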
# Condition Info: HeLa Gal4-ERK5 transactivation, 18 h, at 5 µM, stronger effect = higher value
The source made the active and inactive calls.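 Rule for the calls: active = luciferase signal above three times the same-plate solvent-only control wells; inactive = the rest.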
Kindly supply the reported luciferase signal values for the records listed here.

Looking for the measured luciferase signal of C[C@H](CCC(=O)O)[C@H]1CC[C@H]2[C@@H]3CC[C@@H]4C[C@H](O)CC[C@]4(C)[C@H]3CC[C@]12C , can you help?
76 AU (inactive)

Same thing, different molecule: O=C(/C=C(\O)c1ccccc1)c1ccccc1O
16 AU (inactive)

Same thing, different molecule: CC(C)c1c(O)c(-c2cc3c(c(C(C)C)c2O)CCC2C(C)(C)CCC[C@]32C)cc2c1CCC1C(C)(C)CCC[C@]21C (stereo partly specified)
40 AU (inactive)

Same thing, different molecule: CCOc1nc2cccc(C(=O)OC(C)OC(=O)OC3CCCCC3)c2n1Cc1ccc(-c2ccccc2-c2nn[nH]n2)cc1 (stereo unspecified)
40 AU (inactive)

Same thing, different molecule: CCCCOc1cc(CC2CNC(=O)N2)ccc1OC (stereo unspecified)
60 AU (inactive)

Same thing, different molecule: CC(=O)Oc1ccccc1C(=O)Oc1ccccc1C(=O)O
48 AU (inactive)

Same thing, different molecule: CC(=O)OC(C)(C)[C@@H]1Cc2cc3ccc(=O)oc3cc2O1
40 AU (inactive)

Same thing, different molecule: C=CC1=C(C(=O)O)N2C(=O)[C@@H](NC(=O)/C(=N\O)c3csc(N)n3)[C@H]2SC1 (stereo in doubt)
264 AU (inactive)

Same thing, different molecule: NC(N)=NCCCCN=C(N)N
52 AU (inactive)

Same thing, different molecule: O=C(/C=C/c1ccccc1)c1ccc(O)cc1
28 AU (inactive)

Same thing, different molecule: CC(C)(C)NCC(O)c1ccc(O)c(CO)c1 (stereo unspecified)
32 AU (inactive)

Same thing, different molecule: COc1cc(/C=C/C(=O)O)cc(OC)c1OC
52 AU (inactive)

Same thing, different molecule: O=C(/C=C/c1ccc(O)c(O)c1)O[C@@H]1C[C@](O)(C(=O)O)C[C@@H](O)[C@H]1O
56 AU (inactive)

Same thing, different molecule: CC=C1[C@H]2C=C(C)C[C@]1(N)c1ccc(=O)[nH]c1C2
44 AU (inactive)

Same thing, different molecule: OC[C@@H](O)[C@@H](O[C@@H]1O[C@H](CO)[C@@H](O)[C@H](O)[C@H]1O)[C@H](O)[C@@H](O)CO
208 AU (inactive)

Same thing, different molecule: Oc1cc2c(cc1O)[C@@H]1c3ccc(O)c(O)c3OC[C@]1(O)C2
28 AU (inactive)

Same thing, different molecule: CC(=O)[C@H]1CC[C@H]2[C@@H]3CC=C4C[C@@H](O)CC[C@]4(C)[C@H]3CC[C@]12C
44 AU (inactive)

Same thing, different molecule: C=C1c2c(Cl)ccc(O)c2C(O)=C2C(=O)[C@]3(O)C(O)=C(C(N)=O)C(=O)[C@@H](N(C)C)[C@@H]3[C@@H](O)[C@H]12
40 AU (inactive)

Same thing, different molecule: NCCCNCCSP(=O)(O)O
52 AU (inactive)

Same thing, different molecule: CC(=O)O[C@@H]1c2c(ccc3ccc(=O)oc23)OC(C)(C)[C@@H]1OC(=O)CC(C)C
188 AU (inactive)

Same thing, different molecule: Cc1ccc(N(CC2=NCCN2)c2cccc(O)c2)cc1
116 AU (inactive)
